// data source = patent US8969565B2

- study_system: AAK1 (Homo sapiens, UniProt Q2M2I8)
- Construct: HA; expressed in transfected cells; host or cells: HEK293F
- Sequence (Q2M2I8 1-863 isoform Q2M2I8-2): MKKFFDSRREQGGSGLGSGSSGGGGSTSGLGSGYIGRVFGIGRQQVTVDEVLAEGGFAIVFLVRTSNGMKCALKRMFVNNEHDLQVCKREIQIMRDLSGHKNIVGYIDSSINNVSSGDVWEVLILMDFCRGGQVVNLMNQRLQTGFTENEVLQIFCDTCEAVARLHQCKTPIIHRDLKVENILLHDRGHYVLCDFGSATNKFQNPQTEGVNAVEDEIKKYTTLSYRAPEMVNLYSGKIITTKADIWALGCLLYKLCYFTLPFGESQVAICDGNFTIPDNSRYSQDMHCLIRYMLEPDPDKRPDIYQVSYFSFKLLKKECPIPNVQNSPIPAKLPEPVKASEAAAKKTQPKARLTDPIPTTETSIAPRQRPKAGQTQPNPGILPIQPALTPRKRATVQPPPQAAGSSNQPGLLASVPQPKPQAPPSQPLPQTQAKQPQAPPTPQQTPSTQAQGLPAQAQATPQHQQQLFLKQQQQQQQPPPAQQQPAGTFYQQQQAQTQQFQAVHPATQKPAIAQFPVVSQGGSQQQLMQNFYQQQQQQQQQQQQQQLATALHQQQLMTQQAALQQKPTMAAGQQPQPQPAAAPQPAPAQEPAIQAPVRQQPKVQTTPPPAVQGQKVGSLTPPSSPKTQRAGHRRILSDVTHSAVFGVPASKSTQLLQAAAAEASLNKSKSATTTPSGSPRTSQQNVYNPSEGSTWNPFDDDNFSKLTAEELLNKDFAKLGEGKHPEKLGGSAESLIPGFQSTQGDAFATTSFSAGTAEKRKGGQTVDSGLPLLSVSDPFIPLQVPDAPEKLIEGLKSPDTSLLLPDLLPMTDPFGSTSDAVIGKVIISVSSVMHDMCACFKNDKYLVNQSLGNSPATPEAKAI
- assay_explanation: HEK281 cell-based assay (phospho-mu2 Western blot in transfected HEK293F cells)
- experimental_context: 3 hours incubation, read-out: CBA IC50
In this section, each of the compounds is paired with its reported IC50.

compound	IC50
CN(CCCNc1ccc2ncc(-c3ccc(CN)cc3)n2n1)C(=O)C(C)(C)C	≤ 1000 nM

Reported IC50 for C=C(C)c1cnc2ccc(NC[C@@H]3CCCN3C(=O)OC(C)C)nn12 was ≤ 100 nM

Reported IC50 for CC(C)OCCNc1ccc2ncc(-c3cc[nH]n3)n2n1 was ≤ 1000 nM

Reported IC50 for CCCCNc1ccc2ncc(-c3ccc4cnccc4c3)n2n1 was ≤ 100 nM

Reported IC50 for CNC(=O)c1ccc(-c2cnc3ccc(NCCc4ccccc4OC(F)(F)F)nn23)cc1 was ≤ 10 nM

Reported IC50 for COc1cnccc1-c1cnc2ccc(NC[C@@H]3CCCN3C(C)=O)nn12 was ≤ 100 nM
